# EC50 per entry
biological target: UniProt Q9HBX9; test: RXFP1 Hu cAMP (Test A); assay type: cell-based; set-up: expressed in transfected cells; host or cells: Jump-In T-REx CHO-K1 cells (ThermoFisher), induced with 10 ng/ml doxycycline for 24 h; conditions: Test A EC50, RXFP1 Hu cAMP
// units = nM; emit number, no label

Below: 5 molecules and their reported EC50.
| molecule | result type | measurement |
| --- | --- | --- |
| CC1(CNC(=O)[C@H]2[C@@H]3CC[C@@H](C3)[C@H]2NC(=O)c2ccc(F)c(O[C@H]3CC[C@@](C)(C(=O)O)CC3)c2)CCC1 [Example 400] | EC50 | 180 |
| COc1cc(F)c(O[C@H]2CC[C@@H](C(=O)O)CC2)cc1C(=O)N[C@@H]1[C@H]2CC[C@H](C2)[C@@H]1C(=O)Nc1ccc(C#N)c(C(F)(F)F)c1 [Example 28] | EC50 | 44 |
| COCc1cc(OC)c(C(=O)N[C@@H]2[C@H]3CC[C@H](C3)[C@@H]2C(=O)NCC2(C)CCC2)cc1O[C@H]1CC[C@@](C)(C(=O)O)CC1 [Example 402] | EC50 | 620 |
| COc1c(F)cc(O[C@H]2CC[C@@](C)(C(=O)O)CC2)cc1C(=O)N[C@@H]1[C@H]2CC[C@H](C2)[C@@H]1C(=O)NCC1(C)CCC1 [Example 374] | EC50 | 44 |
| COc1c(C#N)cc(O[C@H]2CC[C@@](C)(C(=O)O)CC2)cc1C(=O)N[C@@H]1[C@H]2CC[C@H](C2)[C@@H]1C(=O)NCC1(C)CCC1 [Example 404] | EC50 | 86 |

Query molecule follows.
INPUT: # get_value(readout='EC50', item= COc1ccc(O[C@H]2CC[C@@](C)(C(=O)O)CC2)cc1C(=O)N[C@@H]1[C@H]2CC[C@H](C2)[C@@H]1C(=O)NCC1(C)CCC1 [Example 381] )
OUTPUT: 110

* * *

experiment: Rat Hepatocyte Stability (Test E); type: in vitro ADME; conditions: rat, hepatocytes, geometric mean if run multiple times
result type: hepatocyte CLint (µL/min/1e6 cells)
// units = µL/min/1e6 cells; emit number, no label

| molecule | measurement |
| --- | --- |
| COc1cc(F)c(O[C@H]2CC[C@@H](C(=O)O)CC2)cc1C(=O)N[C@H]1[C@@H](C(=O)Nc2ccc(OC)c(S(=O)(=O)C(F)(F)F)c2)[C@@H]2C=C[C@H]1C2 [Example 497] | 19 |
| COc1cc(F)c(O[C@H]2CC[C@@H](C(=O)O)CC2)cc1C(=O)N[C@@H]1CCC[C@@H]1C(=O)Nc1cccc(S(=O)(=O)C(F)(F)F)c1 [Example 490] | 16 |
| COc1cc(F)c(-c2cnc(CCC(=O)O)cn2)cc1C(=O)N[C@@H]1[C@H]2CC[C@H](C2)[C@@H]1C(=O)Nc1cccc(S(=O)(=O)C(F)(F)F)c1 [Example 238] | 27 |

INPUT: # get_value(readout='hepatocyte CLint', item= COc1cc(C#N)c(O[C@H]2CC[C@@](C)(C(=O)O)CC2)cc1C(=O)N[C@@H]1[C@H]2CC[C@H](C2)[C@@H]1C(=O)NCC1(F)CCC1 [Example 94] )
OUTPUT: 32

INPUT: # get_value(readout='hepatocyte CLint', item= COc1cc(F)c(O[C@H]2CC[C@@](C)(C(=O)O)CC2)cc1C(=O)N[C@@H]1[C@H](O)CC[C@@H]1C(=O)Nc1cccc(S(=O)(=O)C(F)(F)F)c1 (racemic) [Example 396] )
OUTPUT: 16

* * *

assay: Human Hepatocyte Stability (Test D); format: in vitro ADME; details: human, cryopreserved pooled human hepatocytes (LiverPool 10-Donor), geometric mean if run multiple times
result type: hepatocyte CLint at 1 µM (µL/min/1e6 cells)
// units = µL/min/1e6 cells; emit number, no label

| record smiles | unit | hepatocyte CLint at 1 µM |
| --- | --- | --- |
| COc1cc(F)c(O[C@H]2CC[C@@](C)(C(=O)O)CC2)cc1C(=O)N[C@H]1[C@@H](C(=O)NCC2(C)CCC2)[C@@H]2C=C[C@H]1C2 | µL/min/1e6 cells | 5.1 |
| COc1cc(F)c(O[C@H]2CC[C@@H](C(=O)O)CC2)cc1C(=O)N[C@@H]1[C@H]2CC[C@H](C2)[C@@H]1C(=O)Nc1ccccc1 | µL/min/1e6 cells | 7.6 |

INPUT: # get_value(readout='hepatocyte CLint at 1 µM', item= COc1cc(F)c(O[C@H]2CC[C@@H](C(=O)O)CC2)cc1C(=O)N[C@@H]1[C@H]2CC[C@H](C2)[C@@H]1C(=O)Nc1ccc(C(F)F)cc1 )
OUTPUT: 4.1

* * *

# log10 of solubility per entry
assay: Solubility (Test F); format: physicochemical; conditions: arithmetic mean if run multiple times
Note: values are log10 of solubility expressed in µM.

Below: 3 compounds and their reported log10 of solubility.
| compound | log10 of solubility |
| --- | --- |
| COc1cc(F)c(O[C@H]2CC[C@@H](C(=O)O)CC2)cc1C(=O)N[C@@H]1[C@H]2CC[C@H](C2)[C@@H]1C(=O)Nc1ccc(F)c(OC(F)(F)F)c1 | 2.93 |
| COc1cc(F)c(O[C@H]2CC[C@@H](C(=O)O)CC2)cc1C(=O)N[C@@H]1[C@@H]2CC[C@@H](C2)[C@@H]1C(=O)Nc1cccc(S(F)(F)(F)(F)F)c1 | 3.00 |
| COc1cc(Cl)c(O[C@H]2CC[C@@](C)(C(=O)O)CC2)cc1C(=O)N[C@@H]1[C@@H]2CC[C@@H](C2)[C@@H]1C(=O)NCC1(C)CCC1 | 2.45 |

INPUT: # get_value(readout='log10 of solubility', item= COc1cc(F)c(-c2ncc(CCC(=O)O)cn2)cc1C(=O)N[C@@H]1[C@H]2CC[C@H](C2)[C@@H]1C(=O)Nc1cccc(S(=O)(=O)C(F)(F)F)c1 )
OUTPUT: 2.93

INPUT: # get_value(readout='log10 of solubility', item= COc1cc(F)c(-c2ccc(CCC(=O)O)cc2)cc1C(=O)N[C@@H]1CCC[C@@H]1C(=O)Nc1cccc(S(=O)(=O)C(F)(F)F)c1 )
OUTPUT: 2.98

INPUT: # get_value(readout='log10 of solubility', item= COc1cc(C#N)c(O[C@H]2CC[C@@](C)(C(=O)O)CC2)cc1C(=O)N[C@@H]1[C@H]2CC[C@H](C2)[C@@H]1C(=O)NC1(C)CC1 )
OUTPUT: 2.96

INPUT: # get_value(readout='log10 of solubility', item= COc1cc(F)c(-c2ccc(CCC(=O)O)cn2)cc1C(=O)N[C@@H]1[C@H]2CC[C@H](C2)[C@@H]1C(=O)Nc1cccc(S(=O)(=O)C(F)(F)F)c1 )
OUTPUT: 2.95

INPUT: # get_value(readout='log10 of solubility', item= COc1cc(F)c(-c2ccc(CCS(N)(=O)=O)cc2)cc1C(=O)N[C@H]1[C@H]2CC[C@H](C2)[C@H]1C(=O)Nc1cccc(S(=O)(=O)C(F)(F)F)c1 (single isomer, unassigned) )
OUTPUT: 0.90

INPUT: # get_value(readout='log10 of solubility', item= COc1cc(F)c(O[C@H]2CC[C@@](C)(C(=O)O)CC2)cc1C(=O)N[C@@H]1[C@H]2CC[C@H](C2)[C@@H]1C(=O)NC12CC(F)(C1)C2 )
OUTPUT: 2.94

* * *

# Test A Sinf per entry
Biological target: UniProtKB Q9HBX9
Sequence (Q9HBX9 1-757): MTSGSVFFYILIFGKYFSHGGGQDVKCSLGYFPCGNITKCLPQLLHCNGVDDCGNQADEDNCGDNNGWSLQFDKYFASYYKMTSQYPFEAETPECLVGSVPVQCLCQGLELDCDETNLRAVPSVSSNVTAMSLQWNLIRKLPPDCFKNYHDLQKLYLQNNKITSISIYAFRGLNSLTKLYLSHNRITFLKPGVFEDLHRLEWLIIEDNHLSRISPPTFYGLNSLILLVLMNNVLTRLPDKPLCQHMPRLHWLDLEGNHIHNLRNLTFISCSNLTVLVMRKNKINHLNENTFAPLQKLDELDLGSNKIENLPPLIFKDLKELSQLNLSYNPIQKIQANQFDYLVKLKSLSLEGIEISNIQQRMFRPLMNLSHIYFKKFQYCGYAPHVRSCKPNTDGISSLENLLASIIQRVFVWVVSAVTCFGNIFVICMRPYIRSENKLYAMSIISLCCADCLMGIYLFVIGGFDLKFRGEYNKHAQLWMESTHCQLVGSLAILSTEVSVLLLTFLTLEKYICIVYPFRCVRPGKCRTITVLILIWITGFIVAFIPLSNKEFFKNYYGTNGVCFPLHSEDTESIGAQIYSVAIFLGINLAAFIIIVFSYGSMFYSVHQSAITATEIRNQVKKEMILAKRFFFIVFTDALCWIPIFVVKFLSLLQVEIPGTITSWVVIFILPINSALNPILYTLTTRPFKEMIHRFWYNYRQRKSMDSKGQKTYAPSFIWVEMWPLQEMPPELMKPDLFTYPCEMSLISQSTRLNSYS
Experiment: RXFP1 Hu cAMP (Test A)
Type: cell-based
Set-up: expressed in transfected cells; host or cells: Jump-In T-REx CHO-K1 cells (ThermoFisher), induced with 10 ng/ml doxycycline for 24 h
Conditions: RXFP1 Hu cAMP
// units = %; emit number, no label

| compound | result type | unit | measurement |
| --- | --- | --- | --- |
| CCC1(CNC(=O)[C@H]2[C@@H]3CC[C@@H](C3)[C@H]2NC(=O)c2cc(O[C@H]3CC[C@@](C)(C(=O)O)CC3)c(F)cc2OC)CCC1 [Example 617] | Test A Sinf | % | 101 |
| COc1cc(F)c(O[C@H]2CC[C@@H](C(=O)O)CC2)cc1C(=O)N[C@@H]1[C@H]2CC[C@H](C2)[C@@H]1C(=O)Nc1cc(C)cc(C(F)(F)F)c1 [Example 188] | Test A Sinf | % | 103 |
| CC1(CNC(=O)[C@H]2[C@@H]3CC[C@@H](C3)[C@H]2NC(=O)c2ccc(F)c(O[C@H]3CC[C@@](C)(C(=O)O)CC3)c2)CCC1 [Example 400] | Test A Sinf | % | 91 |
| COc1cc(F)c(O[C@H]2CC[C@@](C)(C(=O)O)CC2)cc1C(=O)N[C@@H]1[C@H]2CC[C@H](C2)[C@@H]1C(=O)NC1CCCC1 [Example 599] | Test A Sinf | % | 91 |

INPUT: # get_value(readout='Test A Sinf', item= COc1cc(F)c(-c2cccc(C(=O)O)c2)cc1C(=O)N[C@H]1[C@@H](C(=O)Nc2cccc(S(=O)(=O)C(F)(F)F)c2)[C@@H]2C=C[C@H]1C2 (single isomer, unassigned) [Example 554] )
OUTPUT: 103

INPUT: # get_value(readout='Test A Sinf', item= COc1cc(F)c(O[C@H]2CC[C@@](C)(C(=O)O)CC2)cc1C(=O)N[C@@H]1CCC[C@@H]1C(=O)NCC(C)C [Example 66] )
OUTPUT: 101
